Field: IC50. Provide a value for each of the molecules that follow.
- system: PI3Kδ (Homo sapiens (Human), UniProt O00329)
- Sequence (O00329 whole entry): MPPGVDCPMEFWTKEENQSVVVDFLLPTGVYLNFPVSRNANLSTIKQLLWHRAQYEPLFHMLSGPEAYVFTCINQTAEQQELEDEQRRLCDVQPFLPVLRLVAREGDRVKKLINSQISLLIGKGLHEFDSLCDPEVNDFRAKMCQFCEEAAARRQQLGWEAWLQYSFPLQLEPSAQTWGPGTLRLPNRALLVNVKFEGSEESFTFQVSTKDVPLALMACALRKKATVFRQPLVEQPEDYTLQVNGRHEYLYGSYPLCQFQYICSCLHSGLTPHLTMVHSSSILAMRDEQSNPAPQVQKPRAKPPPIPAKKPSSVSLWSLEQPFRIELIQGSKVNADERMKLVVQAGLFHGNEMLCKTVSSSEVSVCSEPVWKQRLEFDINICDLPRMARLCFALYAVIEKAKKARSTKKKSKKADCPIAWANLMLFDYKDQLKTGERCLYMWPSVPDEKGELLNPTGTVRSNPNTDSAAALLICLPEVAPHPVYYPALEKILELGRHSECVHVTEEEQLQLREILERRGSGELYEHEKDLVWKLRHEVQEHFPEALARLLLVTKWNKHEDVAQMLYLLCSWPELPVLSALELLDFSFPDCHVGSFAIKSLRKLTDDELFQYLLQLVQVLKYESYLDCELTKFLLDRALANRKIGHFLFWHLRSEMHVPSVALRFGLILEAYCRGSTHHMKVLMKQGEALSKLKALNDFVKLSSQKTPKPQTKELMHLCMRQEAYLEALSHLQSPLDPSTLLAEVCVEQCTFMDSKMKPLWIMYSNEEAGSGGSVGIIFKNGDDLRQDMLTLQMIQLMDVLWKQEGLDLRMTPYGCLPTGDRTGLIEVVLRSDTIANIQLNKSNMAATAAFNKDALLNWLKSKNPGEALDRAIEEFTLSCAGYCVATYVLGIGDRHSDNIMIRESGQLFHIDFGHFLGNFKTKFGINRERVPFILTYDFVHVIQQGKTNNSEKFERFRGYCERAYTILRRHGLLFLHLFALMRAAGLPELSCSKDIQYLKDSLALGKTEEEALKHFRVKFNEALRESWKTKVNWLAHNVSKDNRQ
- Sequence (P27986 whole entry partner): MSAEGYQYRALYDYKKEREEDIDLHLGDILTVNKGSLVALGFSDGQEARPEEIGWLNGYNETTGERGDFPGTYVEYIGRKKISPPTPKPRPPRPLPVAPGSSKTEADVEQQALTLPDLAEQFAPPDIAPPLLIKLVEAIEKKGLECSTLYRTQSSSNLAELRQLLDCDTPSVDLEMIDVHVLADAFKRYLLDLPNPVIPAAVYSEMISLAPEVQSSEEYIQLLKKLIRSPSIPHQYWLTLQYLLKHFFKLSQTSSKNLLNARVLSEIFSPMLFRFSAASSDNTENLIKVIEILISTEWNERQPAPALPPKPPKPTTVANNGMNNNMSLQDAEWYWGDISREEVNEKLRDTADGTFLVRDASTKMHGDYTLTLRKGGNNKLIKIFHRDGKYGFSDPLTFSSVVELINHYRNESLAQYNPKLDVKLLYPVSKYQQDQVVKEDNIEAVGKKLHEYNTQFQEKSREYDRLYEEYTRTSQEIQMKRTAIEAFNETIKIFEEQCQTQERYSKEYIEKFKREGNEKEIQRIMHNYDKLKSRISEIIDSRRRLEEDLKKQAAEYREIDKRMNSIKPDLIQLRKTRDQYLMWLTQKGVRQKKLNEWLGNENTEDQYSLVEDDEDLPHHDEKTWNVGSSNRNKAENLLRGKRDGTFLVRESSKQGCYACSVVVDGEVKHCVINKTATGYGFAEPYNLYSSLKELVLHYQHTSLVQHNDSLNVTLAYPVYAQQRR
- experimentSummary: Inhibition of PI3Kδ efficacy assay (ADP-Glo kinase assay)
- Assay type: biochemical
- protocolConditions: Table 2; read-out: PI3Kδ inhibitory activity (IC50)
Write the number in nM without appending the unit.

Request: Lab note: need IC50 for C=C(COC)C(=O)N1CCN(c2ncnc3ccc(-c4cnc(OC)c(NS(=O)(=O)c5ccc(F)cc5F)c4)cc23)CC1 on PI3Kδ (Homo sapiens (Human), UniProt O00329), anyone have it?
Response: 53

Request: Next entry: C=CC(=O)N1CC(N2CCN(c3ncnc4ccc(-c5cnc(OC)c(NS(=O)(=O)c6ccc(F)cc6F)c5)cc34)CC2)C1
Response: 43.5

Request: Here is the next molecule: COc1ncc(-c2ccc3ncnc(N4CCC5(CN(C(=O)/C=C/C(C)=O)C5)C4)c3c2)cc1NS(=O)(=O)c1c(F)cc(F)cc1F
Response: 14.1

Request: Let us now turn to COc1ncc(-c2ccc3ncnc(N4CCN(C(=O)/C=C/C(C)=O)[C@@H](CC#N)C4)c3c2)cc1NS(=O)(=O)c1c(F)cccc1F
Response: 27

Request: Follow-up item: COc1ncc(-c2ccc3ncnc(N4CCN(C(=O)/C=C/C(C)=O)C[C@@H]4C)c3c2)cc1NS(=O)(=O)c1c(F)cccc1F
Response: 36.3

Request: Ok, now C=C(F)C(=O)N1CCN(c2ncnc3ccc(-c4cnc(OC)c(NS(=O)(=O)c5ccc(F)cc5F)c4)cc23)CC1
Response: 13.1

Request: Another molecule to check: CCOc1c([C@H](C)n2nc(C)c3c(N)ncnc32)cc(Cl)c(F)c1[C@@H]1CNC(=O)C1 [Parsaclisib, reference compound]
Response: 8
